Collected pIC50 values appear next to each entry.
- target: recombinant mTOR (Homo sapiens (Human), UniProt P42345)
- Sequence (P42345 1360-2549): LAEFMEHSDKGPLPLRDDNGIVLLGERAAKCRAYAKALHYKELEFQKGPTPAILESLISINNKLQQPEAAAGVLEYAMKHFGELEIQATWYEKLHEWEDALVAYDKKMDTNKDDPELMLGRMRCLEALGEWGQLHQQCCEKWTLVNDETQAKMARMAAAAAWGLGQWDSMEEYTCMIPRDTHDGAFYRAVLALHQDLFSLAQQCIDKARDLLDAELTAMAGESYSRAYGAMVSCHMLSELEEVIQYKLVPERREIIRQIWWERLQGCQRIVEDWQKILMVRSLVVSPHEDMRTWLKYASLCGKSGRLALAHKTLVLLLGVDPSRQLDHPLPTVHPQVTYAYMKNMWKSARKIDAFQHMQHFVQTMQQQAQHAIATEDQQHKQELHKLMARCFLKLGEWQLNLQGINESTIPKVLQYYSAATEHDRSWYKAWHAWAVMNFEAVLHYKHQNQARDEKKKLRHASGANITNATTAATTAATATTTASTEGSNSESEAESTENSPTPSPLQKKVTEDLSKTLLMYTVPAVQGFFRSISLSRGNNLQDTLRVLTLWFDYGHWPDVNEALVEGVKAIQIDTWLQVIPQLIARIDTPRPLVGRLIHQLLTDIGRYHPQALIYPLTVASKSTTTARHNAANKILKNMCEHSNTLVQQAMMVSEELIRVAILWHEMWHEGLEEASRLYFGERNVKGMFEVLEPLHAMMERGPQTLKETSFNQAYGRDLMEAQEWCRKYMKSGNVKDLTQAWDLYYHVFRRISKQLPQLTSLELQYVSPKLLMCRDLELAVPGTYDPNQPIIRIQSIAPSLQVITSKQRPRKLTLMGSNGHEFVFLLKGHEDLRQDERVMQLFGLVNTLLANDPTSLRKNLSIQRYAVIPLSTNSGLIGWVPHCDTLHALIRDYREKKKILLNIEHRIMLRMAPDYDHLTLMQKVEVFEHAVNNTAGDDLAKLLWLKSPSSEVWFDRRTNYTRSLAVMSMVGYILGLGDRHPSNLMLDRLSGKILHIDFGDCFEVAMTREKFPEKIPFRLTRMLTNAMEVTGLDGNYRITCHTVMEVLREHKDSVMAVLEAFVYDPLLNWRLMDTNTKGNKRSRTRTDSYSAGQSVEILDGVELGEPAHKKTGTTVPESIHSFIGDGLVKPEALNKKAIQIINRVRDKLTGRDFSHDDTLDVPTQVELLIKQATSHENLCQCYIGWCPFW
- assay.method.text: mTOR inhibition assay (radiometric or LanthaScreen TR-FRET)
- Format: biochemical
- experimental.parameters: read-out: MTORC IC50
pIC50: −log10 of the molar value.

The cases that follow already have their pIC50 on record.
{"compound": "N#Cc1cnc2ccc(-c3ccc4oc(N)nc4c3)cc2c1 [compound 93]", "pIC50": "> 5.00"}
{"compound": "CN1CCC(n2cnc3ccc(-c4ccc5oc(N)nc5c4)cc3c2=O)CC1 [compound 36]", "pIC50": "> 5.00"}
{"compound": "Nc1ccc2cc(-c3ccc4nccc(-c5ccncc5)c4c3)ccc2n1 [compound 5]", "pIC50": "> 6.00"}
{"compound": "Nc1nc2cc(-c3ccc4ncc(OC5CCOCC5)nc4c3)ccc2o1 [compound 49]", "pIC50": "> 5.00"}
{"compound": "Nc1nc2cc(-c3ccc4ncc(-c5ccnc(N6CCOCC6)c5)n4c3)ccc2o1 [compound 52]", "pIC50": "> 5.00"}
{"compound": "Nc1nc2ccc(-c3ccc4nccc(-c5ccncc5)c4c3)cc2o1 [compound 4]", "pIC50": "> 6.00"}

// moving on: another record for pIC50
Query: Given the compound CN1CCN(C(=O)C2CN(c3cnc4ccc(-c5ccc6oc(N)nc6c5)cc4n3)C2)CC1 [compound 170] , what is its reported pIC50?
Result: > 5.00

###

- target: p110β/p85α (Homo sapiens (Human))
- Sequence (P42338 whole entry): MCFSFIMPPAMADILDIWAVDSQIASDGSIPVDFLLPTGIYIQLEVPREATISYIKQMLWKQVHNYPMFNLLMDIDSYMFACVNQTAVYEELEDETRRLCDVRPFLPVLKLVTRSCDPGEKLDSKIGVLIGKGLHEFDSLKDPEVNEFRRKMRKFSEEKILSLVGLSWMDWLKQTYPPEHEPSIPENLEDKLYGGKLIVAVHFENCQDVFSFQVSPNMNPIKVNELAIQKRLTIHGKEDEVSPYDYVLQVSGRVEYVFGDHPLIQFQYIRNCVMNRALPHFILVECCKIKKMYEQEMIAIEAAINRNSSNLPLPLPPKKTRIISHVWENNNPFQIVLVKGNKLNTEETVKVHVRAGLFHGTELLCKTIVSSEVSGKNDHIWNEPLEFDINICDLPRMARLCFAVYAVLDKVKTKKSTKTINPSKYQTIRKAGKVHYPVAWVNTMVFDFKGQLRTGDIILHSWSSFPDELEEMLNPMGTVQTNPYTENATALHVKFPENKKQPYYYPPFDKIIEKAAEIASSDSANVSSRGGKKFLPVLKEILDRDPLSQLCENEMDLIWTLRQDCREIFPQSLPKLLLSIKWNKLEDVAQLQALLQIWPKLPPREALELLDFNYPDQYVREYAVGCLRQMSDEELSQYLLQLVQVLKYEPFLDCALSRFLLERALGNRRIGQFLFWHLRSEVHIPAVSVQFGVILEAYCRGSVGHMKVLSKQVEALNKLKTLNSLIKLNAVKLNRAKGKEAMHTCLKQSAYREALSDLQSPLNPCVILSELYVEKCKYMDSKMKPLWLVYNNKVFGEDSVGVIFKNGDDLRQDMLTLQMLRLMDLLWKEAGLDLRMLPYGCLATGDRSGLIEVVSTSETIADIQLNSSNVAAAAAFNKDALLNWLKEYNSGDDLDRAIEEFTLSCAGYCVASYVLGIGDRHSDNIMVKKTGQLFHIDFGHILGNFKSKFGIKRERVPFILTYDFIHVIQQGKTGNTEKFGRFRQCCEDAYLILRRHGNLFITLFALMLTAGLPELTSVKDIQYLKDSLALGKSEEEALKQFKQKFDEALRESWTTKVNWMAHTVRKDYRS
- Sequence (P27986 whole entry partner): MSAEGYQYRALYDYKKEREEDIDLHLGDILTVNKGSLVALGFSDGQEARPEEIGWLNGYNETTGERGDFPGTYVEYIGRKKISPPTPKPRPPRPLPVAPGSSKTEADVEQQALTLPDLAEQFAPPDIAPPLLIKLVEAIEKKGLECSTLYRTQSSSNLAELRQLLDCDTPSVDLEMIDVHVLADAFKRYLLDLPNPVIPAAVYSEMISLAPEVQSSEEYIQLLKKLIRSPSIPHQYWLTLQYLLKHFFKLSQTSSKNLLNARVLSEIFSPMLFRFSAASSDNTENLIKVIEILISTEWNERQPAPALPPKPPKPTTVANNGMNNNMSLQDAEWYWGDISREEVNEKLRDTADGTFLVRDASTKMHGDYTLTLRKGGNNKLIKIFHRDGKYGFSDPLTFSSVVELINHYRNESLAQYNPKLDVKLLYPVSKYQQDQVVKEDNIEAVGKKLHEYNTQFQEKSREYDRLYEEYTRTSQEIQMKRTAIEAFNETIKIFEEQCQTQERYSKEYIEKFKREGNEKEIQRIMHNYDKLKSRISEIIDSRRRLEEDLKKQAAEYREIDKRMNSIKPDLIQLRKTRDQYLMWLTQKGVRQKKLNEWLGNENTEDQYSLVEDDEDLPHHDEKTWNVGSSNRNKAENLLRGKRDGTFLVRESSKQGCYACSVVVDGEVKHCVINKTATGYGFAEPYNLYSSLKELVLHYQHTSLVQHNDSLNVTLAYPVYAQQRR
- assay.method.text: PI 3-Kinase (human) HTRF assay, p110β/p85α
- Format: biochemical
- experimental.parameters: read-out: PI3K β In Vitro IC50
pIC50: −log10 of the molar value.
measure: pIC50

Here is how some compounds turned out for pIC50.
{"compound": "Nc1nc2c(-c3ccc4ncc(C(=O)N5CCOCC5)n4c3)cccc2o1 [compound 496]", "experimental.value": "> 5.00"}
{"compound": "C[C@@H]1CN(C2CN(C(=O)c3cnc4ccc(-c5ccc6oc(N)nc6c5)cn34)C2)CCN1C [compound 508]", "experimental.value": "> 5.00"}
{"compound": "CC(C)N1CCC(n2cnc3ccc(-c4cnc(Cl)c(NS(=O)(=O)c5ccccc5)c4)cc3c2=O)CC1 [compound 521]", "experimental.value": "> 7.00"}

Moving on to the next compound.
Query: Can you share its pIC50? I mean this compound: CC(Oc1nc(-c2ccc3ncc(C(=O)N4CCOCC4)n3c2)cnc1N)C(F)(F)F (centres unmarked) [compound 411]
Result: > 5.00

###

Examples of compounds with documented IC50 follow.
- target: p110α/p85α (Homo sapiens (Human), UniProt P42336)
- assay.method.text: PI 3-Kinase (human) HTRF assay, p110α/p85α
- Type: biochemical
- experimental.parameters: in vitro; read-out: PI3K α IC50

{"compound": "CCN(CC)CCCn1cnc2ccc(-c3ccc4oc(N)nc4c3)cc2c1=O [compound 281]", "IC50": "< 1000 nM"}
{"compound": "Nc1nc2cc(-c3ccc4ncc(N5CC(N6CCNCC6)C5)nc4c3)ccc2o1 [compound 326]", "IC50": "< 100 nM"}
{"compound": "Nc1nc2cc(-c3ccc4ncc(N5CC(C(=O)N6CCN(C7CC7)CC6)C5)nc4c3)ccc2o1 [compound 276]", "IC50": "< 100 nM"}

Query: Value lookup for IC50; key = CN1CCN(CCNc2cnc3ccc(-c4ccc5oc(N)nc5c4)cc3n2)CC1 [compound 275]
Result: < 100 nM

Query: For the compound Nc1nc2cc(-c3ccc4ncn(CCCN5CCOCC5)c(=O)c4c3)ccc2o1 [compound 290] , what IC50 is on record?
Result: < 1000 nM

Query: Can you share its IC50? I mean this compound: Nc1nc2cc(-c3ccc4ncc(NCCCN5CCOCC5)nc4c3)ccc2o1 [compound 222]
Result: < 100 nM

Query: Data request, read-out IC50, for CN1CCN(C2CN(c3cnc4ccc(-c5ccc6oc(N)nc6c5)cc4n3)C2)CC1 [compound 274]
Result: < 100 nM

Query: Looking for the measured IC50 of CCN(CC)C1CN(c2cnc3ccc(-c4ccc5oc(N)nc5c4)cc3n2)C1 [compound 324] , can you help?
Result: < 100 nM

###

In this section, each of the compounds is paired with its reported IC50.
- target: recombinant mTOR (Homo sapiens (Human), UniProt P42345)
- assay.method.text: mTOR inhibition assay (radiometric or LanthaScreen TR-FRET)
- Format: biochemical
- experimental.parameters: in vitro; read-out: MTORC IC50

{"molecule.smiles": "Nc1nc2cc(-c3ccc4oc(N)nc4c3)ccc2o1", "IC50": "< 10 µM"}

Query: What value of measured IC50 is listed for CC1(C)CN(C2CN(c3cnc4ccc(-c5ccc6oc(N)nc6c5)cc4n3)C2)CCN1 ?
Result: < 0.1 µM

Query: IC50 for Nc1nc2cc(-c3nc(N4CCOCC4)c4cnn(C5CCNCC5)c4n3)ccc2o1 ?
Result: < 1 µM

Query: Could you tell me which IC50 is on file for Nc1nc2cc(-c3ccc4ncc(N5CC(N6CCN(C7CC7)CC6)C5)nc4c3)ccc2o1 ?
Result: < 10 µM

Query: What value of measured IC50 is listed for Nc1nc2cc(-c3ccc4nc(N)sc4c3)ccc2o1 ?
Result: < 10 µM

###

- target: p110δ/p85α (Homo sapiens (Human))
- Sequence (O00329 whole entry): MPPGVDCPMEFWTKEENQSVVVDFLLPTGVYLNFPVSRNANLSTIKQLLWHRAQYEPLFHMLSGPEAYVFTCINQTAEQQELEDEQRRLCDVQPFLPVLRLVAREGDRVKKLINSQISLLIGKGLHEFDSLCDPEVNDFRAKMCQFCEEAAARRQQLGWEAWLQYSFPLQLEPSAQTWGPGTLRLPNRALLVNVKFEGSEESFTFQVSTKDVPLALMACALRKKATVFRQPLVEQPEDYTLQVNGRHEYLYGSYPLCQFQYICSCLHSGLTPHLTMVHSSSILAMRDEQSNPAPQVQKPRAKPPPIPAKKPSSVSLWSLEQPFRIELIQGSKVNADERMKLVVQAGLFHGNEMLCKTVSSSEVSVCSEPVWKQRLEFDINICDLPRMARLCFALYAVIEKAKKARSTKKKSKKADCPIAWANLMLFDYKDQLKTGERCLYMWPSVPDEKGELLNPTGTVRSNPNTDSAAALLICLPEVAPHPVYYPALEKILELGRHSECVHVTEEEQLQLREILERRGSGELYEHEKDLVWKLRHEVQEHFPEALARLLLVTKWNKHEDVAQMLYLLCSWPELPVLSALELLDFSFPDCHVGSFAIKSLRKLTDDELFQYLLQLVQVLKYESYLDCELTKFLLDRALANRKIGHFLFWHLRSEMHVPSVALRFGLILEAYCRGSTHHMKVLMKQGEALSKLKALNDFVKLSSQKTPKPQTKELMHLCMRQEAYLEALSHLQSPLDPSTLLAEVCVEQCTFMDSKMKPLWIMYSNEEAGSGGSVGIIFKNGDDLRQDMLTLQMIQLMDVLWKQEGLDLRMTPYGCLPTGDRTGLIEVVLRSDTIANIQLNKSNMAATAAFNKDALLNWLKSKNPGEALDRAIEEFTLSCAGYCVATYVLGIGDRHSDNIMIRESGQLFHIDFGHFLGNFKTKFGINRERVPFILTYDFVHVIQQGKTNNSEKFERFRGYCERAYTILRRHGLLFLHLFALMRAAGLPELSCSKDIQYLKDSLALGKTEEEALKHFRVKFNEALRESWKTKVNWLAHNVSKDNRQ
- Sequence (P27986 whole entry partner): as the sequence (P27986 whole entry partner) above
- assay.method.text: PI 3-Kinase (human) HTRF assay, p110δ/p85α
- Format: biochemical
- experimental.parameters: read-out: PI3K δ IC50
pIC50: −log10 of the molar value.
Reported pIC50 values for a set of compounds

// known answers, use as guide
{"compound": "CC(=O)N1CCC(Nc2cnc3ccc(-c4ccc5oc(N)nc5c4)cc3n2)CC1 [compound 82]", "target": "p110δ/p85α (Homo sapiens (Human))", "experimental.value": "> 7.00"}
{"compound": "Cn1cc(-c2ccnc3ccc(-c4ccc5oc(N)nc5c4)cc23)cn1 [compound 26]", "target": "p110δ/p85α (Homo sapiens (Human))", "experimental.value": "> 7.00"}
{"compound": "Nc1nc2cc(-c3ccc4ncc(C(=O)NC5CCOCC5)n4c3)ccc2o1 [compound 83]", "target": "p110δ/p85α (Homo sapiens (Human))", "experimental.value": "> 7.00"}
{"compound": "CN1CCC(N(C)c2cnc3ccc(-c4ccc5oc(N)nc5c4)cc3n2)CC1 [compound 151]", "target": "p110δ/p85α (Homo sapiens (Human))", "experimental.value": "> 6.00"}

--- query ---
Query: # pIC50 lookup, item CS(=O)(=O)CCN1CCC(Nc2cnc3ccc(-c4ccc5oc(N)nc5c4)cc3n2)CC1 [compound 181]
Result: > 6.00

###

- target: recombinant mTOR (Homo sapiens (Human), UniProt P42345)
- assay.method.text: mTOR inhibition assay (radiometric or LanthaScreen TR-FRET)
- Type: biochemical
- experimental.parameters: read-out: MTORC In Vitro IC50
# IC50 values compiled below

Example entries and their recorded answers appear below.
{"molecule.smiles": "O=C(c1cnc2ccc(-c3cnc(Cl)c(NS(=O)(=O)c4ccc(F)cc4F)c3)cn12)N1CCOCC1", "IC50": "< 1000 nM"}
{"molecule.smiles": "CS(=O)(=O)Nc1cc(-c2ccc3ncc(C(=O)N4CCOCC4)n3c2)cnc1Cl", "IC50": "< 100 nM"}

For the next question, use this molecule.
Query: Which IC50 reading was recorded for the molecule COc1ncc(-c2ccc3ncc(C(=O)N4CCOCC4)n3c2)cc1NS(=O)(=O)c1ccc(F)cc1F ?
Result: < 1000 nM

###

Measured IC50 accompanies every entry in the list below.
- target: p110γ (Homo sapiens (Human), UniProt P48736)
- assay.method.text: PI 3-Kinase (human) HTRF assay, p110γ
- Format: biochemical
- experimental.parameters: read-out: PI3K γ IC50

The following compounds have reported results that may help.
{"molecule.smiles": "Nc1nc2cc(-c3ccc4ncc(-c5cnn(CCO)c5)nc4c3)ccc2o1", "target": "p110γ (Homo sapiens (Human), UniProt P48736)", "experimental.value": "< 100 nM"}
{"molecule.smiles": "Nc1nc2cc(-c3ccc4ncnc(NC5CCOCC5)c4c3)ccc2o1", "target": "p110γ (Homo sapiens (Human), UniProt P48736)", "experimental.value": "< 100 nM"}
{"molecule.smiles": "Nc1ncc2cc(-c3ccc4nccc(-c5ccncc5)c4c3)ccc2n1", "target": "p110γ (Homo sapiens (Human), UniProt P48736)", "experimental.value": "< 1000 nM"}
{"molecule.smiles": "Nc1nc2cc(-c3ccc4ncn(C5CCNCC5)c(=O)c4c3)ccc2o1", "target": "p110γ (Homo sapiens (Human), UniProt P48736)", "experimental.value": "< 10000 nM"}
{"molecule.smiles": "Nc1nc2cc(-c3ccc4ncc(C(=O)N5CCOCC5)n4n3)ccc2o1", "target": "p110γ (Homo sapiens (Human), UniProt P48736)", "experimental.value": "< 1000 nM"}

Query: Endpoint output: IC50 of Cn1cc(-c2cnc3ccc(-c4ccc5oc(N)nc5c4)cn23)cn1 . Value?
Result: < 1000 nM

Query: Item under review: CN(CCN1CCOCC1)c1cnc2ccc(-c3ccc4oc(N)nc4c3)cc2n1 . Reported IC50?
Result: < 10000 nM

Query: Fill blank: measured IC50 of the compound CS(=O)(=O)CCN1CCN(c2cnc3ccc(-c4ccc5oc(N)nc5c4)cc3n2)CC1 is ____.
Result: < 1000 nM

Query: Entry Cc1cn(-c2cnc3ccc(-c4ccc5oc(N)nc5c4)cc3n2)cn1 has what IC50?
Result: < 1000 nM
